# TARGET_OR_SYSTEM: DNA gyrase from E. coli (Escherichia coli, UniProt P0AES4+P0AES6)
# PROTOCOL_DESCRIPTION: Inhibitory activity on E. coli DNA gyrase (Inspiralis assay)
ENDPOINT_NAME: pIC50
Give bare numbers, as −log10 of the molar value.

Request: State pIC50 (DNA gyrase from E. coli (Escherichia coli, UniProt P0AES4+P0AES6)) of CCCCCN(C)Cc1cc(C(=O)O)ccc1-n1ccc2c([nH]c3c(NC)cc(F)cc32)c1=O [Compound 6] .
Result: 7.74
